Test system: Pseudomonas aeruginosa
Experiment: Antimicrobial activity against Pseudomonas aeruginosa ATCC […] assessed as growth inhibition by microdilution assay
Format: functional
endpoint.label: MIC (µg/mL)
Give bare numbers, in µg/mL.

smiles.entry: CC[C@H](NC(=O)[C@@H](O)[C@@H](C)CC)C(=O)N[C@@H](CC(C)C)C(=O)N[C@H](CCCN)C(=O)N[C@H](C(=O)N[C@H](C(=O)N[C@H](C(=O)N[C@H](CCCCN)C(=O)N[C@H](C(=O)N[C@H](C(=O)N[C@@H](CCCCN)C(=O)N[C@H](Cc1ccc(O)cc1)C(=O)N[C@@H](CC(C)C)C(=O)N[C@H](CO)C(C)C)C(C)C)C(C)C)C(C)C)[C@@H](C)CC)[C@@H](C)CC
MIC [µg/mL]: 1

Quick request: MIC for each listed item, please.
1. CC[C@H](C)[C@H](O)C(=O)N[C@H](C(=O)N[C@@H](CC(C)C)C(=O)N[C@H](CCCN)C(=O)N[C@H](C(=O)N[C@H](C(=O)N[C@H](C(=O)N[C@H](CCCCN)C(=O)N[C@H](C(=O)N[C@H](C(=O)N[C@@H](CCCCN)C(=O)N[C@H](Cc1ccc(O)cc1)C(=O)N[C@@H](CC(C)C)C(=O)N[C@H](CO)C(C)C)C(C)C)C(C)C)C(C)C)[C@@H](C)CC)[C@@H](C)CC)C(C)C
2. C/C=C(/NC(=O)[C@@H](O)[C@@H](C)CC)C(=O)N[C@@H](CC(C)C)C(=O)N[C@H](CCCN)C(=O)N[C@H](C(=O)N[C@H](C(=O)N[C@H](C(=O)N[C@H](CCCCN)C(=O)N[C@H](C(=O)N[C@H](C(=O)N[C@@H](CCCCN)C(=O)N[C@H](Cc1ccc(O)cc1)C(=O)N[C@@H](CC(C)C)C(=O)N[C@H](C(N)=O)C(C)C)C(C)C)C(C)C)C(C)C)[C@@H](C)CC)[C@@H](C)CC
3. C/C=C(/NC(=O)[C@@H](O)[C@@H](C)CC)C(=O)N[C@@H](CC(C)C)C(=O)N[C@H](CCCN)C(=O)N[C@H](C(=O)N[C@H](C(=O)N[C@H](C(=O)N[C@H](CCCCN)C(=O)N[C@H](C(=O)N[C@H](C(=O)N[C@@H](CCCCN)C(=O)N[C@H](Cc1ccc(O)cc1)C(=O)N[C@@H](CC(C)C)C(=O)N[C@H](CO)C(C)C)C(C)C)[C@@H](C)CC)C(C)C)[C@@H](C)CC)[C@@H](C)CC
4. CC[C@@H](NC(=O)[C@@H](O)[C@@H](C)CC)C(=O)N[C@@H](CC(C)C)C(=O)N[C@H](CCCN)C(=O)N[C@H](C(=O)N[C@H](C(=O)N[C@H](C(=O)N[C@H](CCCCN)C(=O)N[C@H](C(=O)N[C@H](C(=O)N[C@@H](CCCCN)C(=O)N[C@H](Cc1ccc(O)cc1)C(=O)N[C@@H](CC(C)C)C(=O)N[C@H](CO)C(C)C)C(C)C)C(C)C)C(C)C)C(C)C)C(C)C

[1, 4, 1, 2]

Below are 4 compounds. Give each one its MIC.
1. CC[C@H](C)[C@H](O)C(=O)N[C@H](C(=O)N[C@@H](CC(C)C)C(=O)N[C@H](CCCN)C(=O)N[C@H](C(=O)N[C@H](C(=O)N[C@H](C(=O)N[C@H](CCCCN)C(=O)N[C@H](C(=O)N[C@H](C(=O)N[C@@H](CCCCN)C(=O)N[C@H](Cc1ccc(O)cc1)C(=O)N[C@@H](CC(C)C)C(=O)N[C@H](CO)C(C)C)C(C)C)C(C)C)C(C)C)[C@@H](C)CC)[C@@H](C)CC)[C@@H](C)O
2. CC[C@H](C)[C@H](O)C(=O)N[C@@H](CO)C(=O)N[C@@H](CC(C)C)C(=O)N[C@H](CCCN)C(=O)N[C@H](C(=O)N[C@H](C(=O)N[C@H](C(=O)N[C@H](CCCCN)C(=O)N[C@H](C(=O)N[C@H](C(=O)N[C@@H](CCCCN)C(=O)N[C@H](Cc1ccc(O)cc1)C(=O)N[C@@H](CC(C)C)C(=O)N[C@H](CO)C(C)C)C(C)C)C(C)C)C(C)C)[C@@H](C)CC)[C@@H](C)CC
3. CC[C@H](C)[C@H](O)C(=O)N[C@@H](C)C(=O)N[C@@H](CC(C)C)C(=O)N[C@H](CCCN)C(=O)N[C@H](C(=O)N[C@H](C(=O)N[C@H](C(=O)N[C@H](CCCCN)C(=O)N[C@H](C(=O)N[C@H](C(=O)N[C@@H](CCCCN)C(=O)N[C@H](Cc1ccc(O)cc1)C(=O)N[C@@H](CC(C)C)C(=O)N[C@H](CO)C(C)C)C(C)C)C(C)C)C(C)C)[C@@H](C)CC)[C@@H](C)CC
4. CC[C@H](NC(=O)[C@@H](NC(C)=O)[C@@H](C)CC)C(=O)N[C@@H](CC(C)C)C(=O)N[C@H](CCCN)C(=O)N[C@H](C(=O)N[C@H](C(=O)N[C@H](C(=O)N[C@H](CCCCN)C(=O)N[C@H](C(=O)N[C@H](C(=O)N[C@@H](CCCCN)C(=O)N[C@H](Cc1ccc(O)cc1)C(=O)N[C@@H](CC(C)C)C(=O)N[C@H](CO)C(C)C)C(C)C)C(C)C)C(C)C)[C@@H](C)CC)[C@@H](C)CC

1. 2
2. 4
3. 1
4. 2
